target: human Dopamine D1 receptor (Homo sapiens, UniProt P21728); construct: expressed in transfected cells; host or cells: Ltk- cells (mouse fibroblasts), membrane preparation; test: radioligand binding competition assay, displacement of [3H]SCH 23390 from D1 receptor (Ltk-cells membranes); conditions: class combines Ki (D1) and, for A and B, D2:D1 selectivity (Ki D2 / Ki D1); read-out: D1 binding and D2:D1 Selectivity;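 also: under 5 nM class also requires D2 to D1 selectivity above 500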
Sequence (P21728 whole entry): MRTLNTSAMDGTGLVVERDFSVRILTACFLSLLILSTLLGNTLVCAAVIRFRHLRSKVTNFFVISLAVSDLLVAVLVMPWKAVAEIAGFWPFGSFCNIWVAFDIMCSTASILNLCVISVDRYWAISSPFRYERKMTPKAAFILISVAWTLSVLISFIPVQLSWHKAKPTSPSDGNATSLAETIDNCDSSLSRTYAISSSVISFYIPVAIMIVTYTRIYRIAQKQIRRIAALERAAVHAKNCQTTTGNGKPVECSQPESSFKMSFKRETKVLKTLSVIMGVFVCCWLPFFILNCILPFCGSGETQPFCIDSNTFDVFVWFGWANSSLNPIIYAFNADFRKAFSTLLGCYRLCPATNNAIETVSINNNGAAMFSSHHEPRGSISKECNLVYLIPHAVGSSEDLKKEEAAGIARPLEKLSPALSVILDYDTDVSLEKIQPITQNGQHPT
property_name: Ki

These solved cases illustrate the format of a correct answer.
N=C(Nc1ccc(Cl)cc1)c1ccc2nc(N3CCNCC3)ccc2c1 [Example 79] :: 50 to 10000 nM
N=C(/C=C/c1ccc(Cc2cccnc2)cc1)Nc1ccc(Br)cc1 [Example 24] :: 10 to 50 nM

Alright, here's another molecule for you.
State measured Ki of the molecule N=C(Nc1ccc(Cl)cc1)c1ccc2cccc(O)c2n1 [Example 66] with human Dopamine D1 receptor (Homo sapiens, UniProt P21728).
10 to 50 nM
